biological target: T1, soluble human recombinant CD4 expressed in baculovirus (human, UniProt P01730 26-396, limits assumed); assay: SPR (BIAcore), CD4 immobilised, Exp. 1
T1 construct: Coated on plates for the ELISA and covalently immobilised on the sensor for BIAcore; Only called soluble; also called soluble CD4; CD4 expressed in the baculovirus
OUTCOME_MEASURE: Kd (nM)
Only the number, expressed in nM, is required.

These solved cases illustrate the format of a correct answer.
[
  {
    "BINDER": "mutant Fab Y36-L of the 13B8.2 antibody (Fab, V domains shown, Chimeric Fab with human CH1-γ1 and Cκ; baculovirus/Sf9) VH: QVQLKQSGPGLVQPSQSLSITCTVSGFSLTTFGVHWVRQSPGKGLEWLGVIWRSGITDYNVPFMSRLSITKDNSKSQVFFKLNSLQPDDTAIYYCAKNDPGTGFAYWGQGTLVTVSA VL: DIQMTQSPASLSASVGETVTFTCRASENIYSYLAWAQQKQGKSPQLLVHDAKTLAEGVPSRFSGGGSGTQFSLKINTLQPEDFGTYYCQHHYGNPPTFGGGTKLEIK",
    "RESULT_UNITS": "nM",
    "VALUE_REPORTED": 25.4
  },
  {
    "BINDER": "wild recombinant chimeric Fab fragment of the 13B8.2 anti-CD4 antibody (Fab, V domains shown, Chimeric Fab: murine V domains fused to human CH1-γ1 (Fdγ1) and human Cκ, expressed in baculovirus/Sf9 cells, purified on protein G; also called Fabwild 13B8.2; wild Fab) VH: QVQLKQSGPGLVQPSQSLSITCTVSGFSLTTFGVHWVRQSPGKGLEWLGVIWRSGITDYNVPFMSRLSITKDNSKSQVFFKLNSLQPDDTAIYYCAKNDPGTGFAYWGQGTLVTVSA VL: DIQMTQSPASLSASVGETVTFTCRASENIYSYLAWYQQKQGKSPQLLVHDAKTLAEGVPSRFSGGGSGTQFSLKINTLQPEDFGTYYCQHHYGNPPTFGGGTKLEIK",
    "RESULT_UNITS": "nM",
    "VALUE_REPORTED": 28.4
  },
  {
    "BINDER": "control mutant Fab V61-H of the 13B8.2 antibody (Fab, V domains shown, Chimeric Fab with human CH1-γ1 and Cκ; baculovirus/Sf9; Control position, not a Spot contributor residue; also called V61-Hcontrol) VH: QVQLKQSGPGLVQPSQSLSITCTVSGFSLTTFGVHWVRQSPGKGLEWLGVIWRSGITDYNAPFMSRLSITKDNSKSQVFFKLNSLQPDDTAIYYCAKNDPGTGFAYWGQGTLVTVSA VL: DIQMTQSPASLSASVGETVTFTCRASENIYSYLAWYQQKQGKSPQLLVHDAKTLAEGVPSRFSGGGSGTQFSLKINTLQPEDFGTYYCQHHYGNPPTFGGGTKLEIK",
    "RESULT_UNITS": "nM",
    "VALUE_REPORTED": 2
  }
]

As a next step, examine the binder that follows.
What value of Kd has been recorded for this entry: mutant Fab F32-H of the 13B8.2 antibody (Fab, V domains shown, Chimeric Fab with human CH1-γ1 and Cκ; baculovirus/Sf9; also called F32 mutant Fab) VH: QVQLKQSGPGLVQPSQSLSITCTVSGFSLTTAGVHWVRQSPGKGLEWLGVIWRSGITDYNVPFMSRLSITKDNSKSQVFFKLNSLQPDDTAIYYCAKNDPGTGFAYWGQGTLVTVSA VL: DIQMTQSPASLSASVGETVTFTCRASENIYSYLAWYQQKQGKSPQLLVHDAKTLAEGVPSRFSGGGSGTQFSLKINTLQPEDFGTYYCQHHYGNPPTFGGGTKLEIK
13.5
